molecular target: Prostaglandin G/H synthase 1 (Homo sapiens, UniProt P23219); assay: Inhibition of COX1 (unknown origin)
Sequence (P23219 whole entry): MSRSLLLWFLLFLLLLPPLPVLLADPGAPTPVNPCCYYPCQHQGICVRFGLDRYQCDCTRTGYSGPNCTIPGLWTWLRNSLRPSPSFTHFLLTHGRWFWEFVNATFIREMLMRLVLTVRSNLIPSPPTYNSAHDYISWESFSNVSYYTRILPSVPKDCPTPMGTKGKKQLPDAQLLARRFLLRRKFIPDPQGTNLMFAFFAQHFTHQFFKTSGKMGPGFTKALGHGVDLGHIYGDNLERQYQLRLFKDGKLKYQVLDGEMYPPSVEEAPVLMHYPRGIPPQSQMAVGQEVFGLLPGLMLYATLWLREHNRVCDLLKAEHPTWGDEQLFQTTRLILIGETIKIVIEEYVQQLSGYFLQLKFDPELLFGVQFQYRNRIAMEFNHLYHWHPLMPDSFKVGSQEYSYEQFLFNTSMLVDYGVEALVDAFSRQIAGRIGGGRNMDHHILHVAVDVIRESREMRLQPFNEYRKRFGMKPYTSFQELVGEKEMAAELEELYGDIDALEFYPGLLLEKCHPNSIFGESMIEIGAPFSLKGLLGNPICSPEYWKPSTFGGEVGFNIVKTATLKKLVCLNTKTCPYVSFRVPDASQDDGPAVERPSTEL
VALUE KIND: IC50 (µM)
Please give a number only; it is taken to be in µM.

Lab note: measured IC50 of CS(=O)(=O)c1ccc(C2C(c3ccccc3)=NOC23COc2ccccc2C3=O)cc1 (stereo unspecified) was 10.5

----------
Reported pIC50 values are given for each entry in this list.
target: Prostaglandin G/H synthase 2 (Homo sapiens, UniProt P35354); experiment: Inhibition of human recombinant COX2 by enzyme immuno assay
Sequence (P35354 whole entry): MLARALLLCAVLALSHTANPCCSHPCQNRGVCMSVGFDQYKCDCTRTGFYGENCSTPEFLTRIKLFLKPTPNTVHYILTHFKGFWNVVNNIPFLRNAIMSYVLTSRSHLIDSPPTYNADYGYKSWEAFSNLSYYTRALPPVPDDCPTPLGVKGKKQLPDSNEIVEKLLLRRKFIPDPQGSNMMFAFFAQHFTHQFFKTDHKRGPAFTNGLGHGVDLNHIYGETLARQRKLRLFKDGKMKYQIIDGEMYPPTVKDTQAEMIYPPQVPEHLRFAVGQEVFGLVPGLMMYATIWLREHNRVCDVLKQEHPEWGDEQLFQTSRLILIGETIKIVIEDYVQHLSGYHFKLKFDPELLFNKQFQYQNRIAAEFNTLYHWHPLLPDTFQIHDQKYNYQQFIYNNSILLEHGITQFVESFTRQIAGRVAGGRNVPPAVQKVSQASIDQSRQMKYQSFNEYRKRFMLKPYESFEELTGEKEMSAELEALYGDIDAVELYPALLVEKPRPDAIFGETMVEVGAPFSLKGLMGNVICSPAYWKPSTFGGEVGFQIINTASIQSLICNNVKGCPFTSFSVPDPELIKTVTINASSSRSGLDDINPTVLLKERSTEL
Scale note: pIC50 = -log10(concentration in M).

compound_smiles=CS(=O)(=O)c1ccc(-n2nc(-c3ccc(O)cc3)cc2-c2ccc(C(F)(F)F)cc2)cc1 data_value=6.01

Consider the additional compound presented here.
Lab note: measured pIC50 of CCOc1ccc(-c2cc(-c3ccc(C(F)(F)F)cc3)n(-c3ccc(S(C)(=O)=O)cc3)n2)cc1 was 6.01
